- experiment: Study I (DW1809-102): pharmacokinetic analysis of plasma pelubiprofen (LC-MS/MS) after single oral dose
- settings: human, plasma, po, 30 mg
property label: half-life (min)
// units = min; emit number, no label

Specify measured half-life for CC(C(=O)O)c1ccc(/C=C2\CCCCC2=O)cc1 (stereo not shown) [Pelubiprofen] .
59.4

====

- experiment: Study I (DW1809-102): pharmacokinetic analysis of plasma pelubiprofen (LC-MS/MS) after single oral dose
- settings: human, plasma, po, 30 mg
- Method: In this study, the two independent clinical trials (Study I and II) were conducted using an identical randomized, open-label, oral, single-dose, fasted, two-sequence, four-period, crossover design. Due to the known pharmacokinetic characteristics of pelubiprofen with its large intra-subject variability, the replicated design was chosen to calculate the true intra-coefficient of variation in both studies. […]
property label: Cmax (ng/mL)
// units = ng/mL; emit number, no label

Specify measured Cmax for CC(C(=O)O)c1ccc(/C=C2\CCCCC2=O)cc1 (stereo not shown) .
619

====

- experiment: Study I (DW1809-102): pharmacokinetic analysis of plasma pelubiprofen (LC-MS/MS) after single oral dose
- settings: human, plasma, po, 30 mg
property label: Vd/F (L)
// units = L; emit number, no label

Specify measured Vd/F for CC(C(=O)O)c1ccc(/C=C2\CCCCC2=O)cc1 (stereo not shown) .
125

====

- experiment: Study I (DW1809-102): pharmacokinetic analysis of plasma pelubiprofen (LC-MS/MS) after single oral dose
- settings: human, plasma, po, 30 mg
property label: AUC0-t (ng·h/mL)
// units = ng·h/mL; emit number, no label

Specify measured AUC0-t for CC(C(=O)O)c1ccc(/C=C2\CCCCC2=O)cc1 (stereo not shown) .
352

====

- experiment: Study II (DW1809-103): pharmacokinetic analysis of plasma pelubiprofen (LC-MS/MS) after single oral dose
- settings: human, plasma, po, 30 mg
property label: half-life
The reply should consist of the numeric value with the unit placed after it.

Specify measured half-life for CC(C(=O)O)c1ccc(/C=C2\CCCCC2=O)cc1 (stereo not shown) .
55.8 min

====

- experiment: Study II (DW1809-103): pharmacokinetic analysis of plasma pelubiprofen (LC-MS/MS) after single oral dose
- settings: human, plasma, po, 30 mg
property label: AUC0-inf (ng·h/mL)
// units = ng·h/mL; emit number, no label

Specify measured AUC0-inf for CC(C(=O)O)c1ccc(/C=C2\CCCCC2=O)cc1 (stereo not shown) .
366

====

- experiment: Study II (DW1809-103): pharmacokinetic analysis of plasma pelubiprofen (LC-MS/MS) after single oral dose
- settings: human, plasma, po, 30 mg
property label: AUC0-t (ng·h/mL)
// units = ng·h/mL; emit number, no label

Specify measured AUC0-t for CC(C(=O)O)c1ccc(/C=C2\CCCCC2=O)cc1 (stereo not shown) .
365

====

- experiment: Study II (DW1809-103): pharmacokinetic analysis of plasma pelubiprofen (LC-MS/MS) after single oral dose
- settings: human, plasma, po, 30 mg
property label: Tmax (min)
// units = min; emit number, no label

Specify measured Tmax for CC(C(=O)O)c1ccc(/C=C2\CCCCC2=O)cc1 (stereo not shown) .
30
